The reported measurements were obtained from patent US12351581B2.

- assayedSystem: FGFR2 (Homo sapiens, UniProt P21802)
- Construct: biochemical assays using purified intracellular domains of the respective isoforms; purchased Carna Bioscience 08-134
- Sequence (P21802 399-821 limits assumed): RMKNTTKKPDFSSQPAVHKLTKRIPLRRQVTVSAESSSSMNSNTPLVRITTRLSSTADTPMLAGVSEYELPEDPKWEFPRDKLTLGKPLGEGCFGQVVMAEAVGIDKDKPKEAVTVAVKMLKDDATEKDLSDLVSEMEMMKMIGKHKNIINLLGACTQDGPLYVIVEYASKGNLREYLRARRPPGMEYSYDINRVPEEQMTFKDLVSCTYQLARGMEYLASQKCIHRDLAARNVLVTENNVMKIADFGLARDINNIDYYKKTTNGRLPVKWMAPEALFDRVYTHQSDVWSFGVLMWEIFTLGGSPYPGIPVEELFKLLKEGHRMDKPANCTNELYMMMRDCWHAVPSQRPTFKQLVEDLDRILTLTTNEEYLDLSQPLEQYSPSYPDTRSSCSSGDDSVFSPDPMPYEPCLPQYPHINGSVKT
- assayName: FGFR wild type enzyme assay (HTRF KinEASE-TK)
- Type: biochemical
- protocolConditions: compound table after the examples; ATP 2 uM; read-out: Enz FGFR2
pIC50: −log10 of the molar value.
readout: pIC50

# compound, val
records = [
    ("C[C@@H](Oc1cc(-c2cnn(C3CCN(C#N)CC3)c2N)cn2ncc(C#N)c12)c1ccc(F)cn1", 9.52),
    ("Cc1c(-c2cc(OC(C)c3ccc(F)cn3)c3c(C#N)cnn3c2)cnn1[C@H]1CC[C@@H](O)CC1 (stereo partly drawn)", 9.15),
    ("C[C@@H](Oc1cc(-c2ccc(N3CC[C@H](O)[C@H](O)C3)nc2)cn2ncc(C#N)c12)c1ccc(F)cn1", 9.30),
    ("Cc1c(-c2cc(OC(C)c3ccc(F)cn3)c3c(C#N)cnn3c2)cnn1[C@H]1CC[C@H](O)CC1 (stereo partly drawn)", 9.00),
    ("C[C@@H](Oc1cc(-c2cnn(C3CCNCC3)c2)cn2ncc(C#N)c12)c1ccccn1", 9.80),
    ("Cc1c(-c2cc(O[C@H](C)c3ccc(F)cn3)c3c(C#N)cnn3c2)nnn1[C@H]1CC[C@H](O)CC1", 9.30),
    ("C[C@@H](Oc1cc(-c2cnn(C)c2N)cn2ncc(C#N)c12)c1ccccn1", 9.00),
    ("Cc1c(-c2cc(O[C@H](C)c3ccc(F)cn3)c3c(C#N)cnn3c2)cnn1[C@H]1CCCN(C(=O)C(C)(C)O)C1", 9.22),
    ("C[C@@H](Oc1cc(-c2ccc(N3CCC(O)CC3)nc2)cn2ncc(C#N)c12)c1ccc(F)cn1", 9.70),
    ("C[C@@H](Oc1cc(-c2cnn(CCO)c2N)cn2ncc(C#N)c12)c1ccc(F)cn1", 9.00),
    ("Cc1c(-c2cc(O[C@H](C)c3ccc(F)cn3)c3c(C#N)cnn3c2)cnn1[C@H]1CCCN(C(=O)[C@@H](C)O)C1", 9.40),
    ("C[C@@H](Oc1cc(-c2ccc(N3CC[C@H](O)[C@@H](O)C3)nc2)cn2ncc(C#N)c12)c1ccc(F)cn1", 9.52),
    ("Cc1c(-c2cc(O[C@H](C)c3ccc(F)cn3)c3c(C#N)cnn3c2)cnn1[C@H]1CC[C@@](C)(O)CC1", 9.40),
    ("C[C@@H](Oc1cc(-c2nnn(C)c2N)cn2ncc(C#N)c12)c1ccc(F)cn1", 8.59),
    ("Cc1c(-c2cc(O[C@H](c3ccc(F)cn3)C(F)(F)F)c3c(C#N)cnn3c2)cnn1[C@H]1CC[C@H](O)CC1", 6.96),
]

###

Listing of recorded IC50 by entry.
- assayedSystem: FGFR2 V564I (Homo sapiens, UniProt P21802, V564I)
- Construct: biochemical assays using purified intracellular domains of the respective isoforms
- Sequence (P21802 399-821 V564I limits assumed): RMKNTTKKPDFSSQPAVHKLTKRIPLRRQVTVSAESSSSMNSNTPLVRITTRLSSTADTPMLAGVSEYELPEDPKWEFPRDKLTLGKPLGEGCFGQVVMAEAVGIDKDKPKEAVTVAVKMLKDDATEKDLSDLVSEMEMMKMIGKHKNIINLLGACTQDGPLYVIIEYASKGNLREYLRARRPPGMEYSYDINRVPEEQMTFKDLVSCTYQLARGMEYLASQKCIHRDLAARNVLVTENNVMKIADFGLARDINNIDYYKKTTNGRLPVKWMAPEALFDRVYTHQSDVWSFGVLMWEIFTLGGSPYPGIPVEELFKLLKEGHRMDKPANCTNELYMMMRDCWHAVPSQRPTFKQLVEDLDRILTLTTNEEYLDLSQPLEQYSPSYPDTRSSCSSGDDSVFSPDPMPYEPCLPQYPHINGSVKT
- assayName: FGFR mutant enzyme assay (HTRF KinEASE-TK)
- protocolConditions: ATP 0.4 uM

# entrySmiles, IC50 / nM
data = [
    ("Cc1c(-c2cc(O[C@H](C)c3ccc(F)cn3)c3c(C#N)cnn3c2)cnn1[C@@H]1CCC[C@H](O)C1", 1.5),
    ("Cc1c(-c2cc(O[C@H](C)c3ccc(F)cn3)c3c(C#N)cnn3c2)cnn1[C@@H]1CCC[C@@H](O)C1", 4),
    ("Cc1c(-c2cc(O[C@H](c3ccc(F)cn3)C(F)(F)F)c3c(C#N)cnn3c2)cnn1[C@H]1CC[C@H](O)CC1", 420),
    ("Cc1c(-c2cc(O[C@@H](c3ccc(F)cn3)C(F)(F)F)c3c(C#N)cnn3c2)cnn1[C@H]1CC[C@H](O)CC1", 1.6),
    ("C[C@@H](Oc1cc(-c2cnn(C)c2N)cn2ncc(C#N)c12)c1ccccn1", 2.7),
    ("Cc1c(-c2cc(O[C@H](C)c3ccc(F)cn3)c3c(C#N)cnn3c2)cnn1[C@H]1CCCN(C(CO)CO)C1", 1.3),
    ("Cc1c(-c2cc(O[C@H](C)c3ccc(F)cn3)c3c(C#N)cnn3c2)cnn1[C@H]1CCC[C@H](O)C1", 1.4),
    ("Cc1c(-c2cc(O[C@H](C)c3ccc(F)cn3)c3c(C#N)cnn3c2)cnn1C1CCN(C(=O)C2(N)CCC2)CC1", 3),
    ("C[C@@H]1CN(c2ccc(-c3cc(O[C@H](C)c4ccc(F)cn4)c4c(C#N)cnn4c3)cn2)C[C@H](C)O1", 1),
    ("C[C@@H](Oc1cc(-c2cnn([C@H]3CC[C@H](O)CC3)c2)cn2ncc(C#N)c12)c1ccc(F)cn1", 0.6),
    ("Cc1c(-c2cc(O[C@H](C)c3cccnc3)c3c(C#N)cnn3c2)cnn1[C@H]1CC[C@H](O)CC1", 1),
    ("C[C@@H](Oc1cc(-c2cnn(C)c2N)cn2ncc(C#N)c12)c1ccc(F)cn1", 6),
    ("Cc1c(-c2cc(O[C@H](C)c3ccc(F)cn3)c3c(C#N)cnn3c2)cnn1[C@H]1CC[C@@](C)(O)CC1", 2),
    ("Cc1c(-c2cc(O[C@H](C)c3ccc(F)cn3)c3c(C#N)cnn3c2)cnn1C1CCN(C[C@H](O)CO)CC1", 1),
]
